Molecular target: Voltage-dependent calcium channel gamma-2 subunit (Mus musculus) + Glutamate receptor 2 (Rattus norvegicus) (UniProt O88602+P19491)
Sequence (O88602 whole entry, looked up): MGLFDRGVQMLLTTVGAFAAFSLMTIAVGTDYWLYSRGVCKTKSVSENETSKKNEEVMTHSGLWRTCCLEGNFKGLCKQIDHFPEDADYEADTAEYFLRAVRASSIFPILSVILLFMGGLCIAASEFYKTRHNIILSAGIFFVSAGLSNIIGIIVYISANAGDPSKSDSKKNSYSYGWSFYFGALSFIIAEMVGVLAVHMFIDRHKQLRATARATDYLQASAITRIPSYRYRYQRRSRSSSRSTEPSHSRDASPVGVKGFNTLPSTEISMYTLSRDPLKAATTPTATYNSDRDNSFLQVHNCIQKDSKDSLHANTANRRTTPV
Sequence (P19491 whole entry, looked up): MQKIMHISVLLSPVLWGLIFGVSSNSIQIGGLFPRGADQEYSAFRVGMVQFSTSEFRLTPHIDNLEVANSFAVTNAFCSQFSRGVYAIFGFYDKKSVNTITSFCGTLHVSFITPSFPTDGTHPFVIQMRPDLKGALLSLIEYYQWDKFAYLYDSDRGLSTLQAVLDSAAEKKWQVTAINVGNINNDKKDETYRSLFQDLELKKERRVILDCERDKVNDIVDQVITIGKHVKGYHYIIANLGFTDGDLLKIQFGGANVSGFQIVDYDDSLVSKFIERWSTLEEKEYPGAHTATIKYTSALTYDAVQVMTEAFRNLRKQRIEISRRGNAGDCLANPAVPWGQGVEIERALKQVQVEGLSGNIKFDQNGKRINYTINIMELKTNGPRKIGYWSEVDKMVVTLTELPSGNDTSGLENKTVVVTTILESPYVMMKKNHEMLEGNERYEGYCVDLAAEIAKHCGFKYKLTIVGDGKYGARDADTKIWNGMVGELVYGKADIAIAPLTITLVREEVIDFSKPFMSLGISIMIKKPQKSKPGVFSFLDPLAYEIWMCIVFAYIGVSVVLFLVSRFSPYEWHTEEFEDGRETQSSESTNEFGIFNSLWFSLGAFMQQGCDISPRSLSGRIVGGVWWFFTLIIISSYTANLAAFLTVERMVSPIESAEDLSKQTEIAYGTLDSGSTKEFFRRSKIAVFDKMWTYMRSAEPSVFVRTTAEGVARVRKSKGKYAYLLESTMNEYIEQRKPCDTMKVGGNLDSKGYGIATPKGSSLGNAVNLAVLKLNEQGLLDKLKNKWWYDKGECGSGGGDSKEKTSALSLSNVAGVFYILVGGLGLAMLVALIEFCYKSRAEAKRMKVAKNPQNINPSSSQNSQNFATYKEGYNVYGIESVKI
Test: modulators of GluA2-stargazin AMPA receptor complexes, primary screen, cell-based, membrane potential dye (AID 1259245)
Details: HEK293 GluA2+stargazin, membrane potential dye (FDSS), glutamate EC50, at 30 µM, hits were called plate by plate, in both directions; compound-alone response (agonism)
Hit rate of the full screen: of about 40,000 compounds, about 1,400 (3.5%) were called active. Shown is part of a subset that was picked to be rich in actives.
Could you label it y if measured compound max-min signal is 0.1 or higher, and n otherwise?

# COMPOUND, ASSIGNED_LABEL
data = [
    ("CCOc1ccc(-c2ccc(N3CCN(C(=O)c4ccc5nsnc5c4)CC3)nn2)cc1", "n"),
    ("CCn1ccnc1N1CCN(C(=O)c2ccccc2Cl)CC1", "n"),
    ("CCSc1ccccc1C(=O)N1CCN(c2ccc(-c3ccccn3)nn2)CC1", "y"),
    ("COc1ccc(C(=O)N2CCc3cc(S(=O)(=O)NC4CCCC4)ccc32)cc1", "y"),
    ("O=C(NCc1ccccc1)N1CCN(c2ccc(-c3ccncc3)nn2)CC1", "y"),
    ("O=C(NCCN1CCOC(c2ccccc2)C1)c1c(F)cccc1F (stereo unspecified)", "n"),
]

----------
Biological target: Voltage-dependent calcium channel gamma-2 subunit (Mus musculus) + Glutamate receptor 2 (Rattus norvegicus) (UniProt O88602+P19491)
Experiment: modulators of GluA2-stargazin AMPA receptor complexes, primary screen, cell-based, membrane potential dye (AID 1259245)
Details: HEK293 GluA2+stargazin, membrane potential dye (FDSS), glutamate EC50, at 30 µM, hits were called plate by plate, in both directions; measured here: glutamate response slope, % max
Out of some 40,000 compounds screened, about 1,400 (3.5%) were called active. Shown is part of a subset that was picked to be rich in actives.
Could you label it 1.0 if measured glutamate slope, % of max is 60% or higher, and 0.0 otherwise?

# COMPOUND, ASSIGNED_LABEL
measured = [
    ("COCCNC(=O)C(=O)Nc1cc(N2CCCS2(=O)=O)ccc1OC", 0.0),
    ("COc1ccc(CC(=O)NCCOc2cc(C)cc(C)c2)cc1OC", 1.0),
    ("COc1cccc(-c2noc(C3CCN(S(=O)(=O)c4ccc(C)cc4)CC3)n2)c1OC", 0.0),
    ("COc1ccc(CNC(=O)C(=O)NCC2CCN(Cc3cccs3)CC2)cc1", 0.0),
    ("Cc1cc(C)c2c(n1)sc1c(=O)n(CC(=O)Nc3ccc(F)cc3F)cnc12", 1.0),
    ("O=C(NNC(=O)c1ccc(=O)n(Cc2ccccc2)c1)c1ccc(F)c(F)c1", 0.0),
    ("Cc1c(Cl)ccc2sc(N(Cc3ccccn3)C(=O)Cc3ccc(S(C)(=O)=O)cc3)nc12", 0.0),
    ("O=S(=O)(/C=C/c1ccccc1)NCC#CCN1CCc2ccccc2C1", 0.0),
    ("O=C(CSc1cc(N2CCN(c3ccccc3F)CC2)ncn1)c1cccs1", 1.0),
    ("COc1ccc(NC(=O)CSc2nccn(-c3cccc(F)c3)c2=O)cc1Cl", 0.0),
    ("O=C(Nc1onc2c1CCCC2)c1nc(-c2cnccn2)no1", 1.0),
    ("Cc1ccc(F)cc1NC(=O)CSc1ncc(S(=O)(=O)c2ccc(Cl)s2)c(N)n1", 0.0),
    ("O=S(=O)(NCC#CCN1CCc2ccccc2C1)c1ccc(Br)cc1", 1.0),
    ("COc1ccc(NC(=O)C(=O)Nc2cc([N+](=O)[O-])ccc2C)cc1OC", 1.0),
    ("CCC(C)c1ccccc1OCC(O)CN (stereo not drawn)", 0.0),
    ("CC(O)(CNC(=O)NCc1ccc(F)cc1)c1ccc(-c2ccccc2)cc1 (stereo not drawn)", 0.0),
    ("CC(C)C(=O)Nc1ccc(SCC(=O)c2ccccc2)nn1", 0.0),
    ("Cc1ccc(CN2C(=O)NC3(CCN(C(=O)c4ccccc4F)CC3)C2=O)cc1", 0.0),
    ("O=C(CCCc1ccccc1)N1CCN(c2ccc3nnc(-c4ccco4)n3n2)CC1", 1.0),
    ("COc1cccc(NC(=O)c2ccc(=O)n(Cc3cccc(C(F)(F)F)c3)c2)c1", 0.0),
    ("COCCCNc1nc2c(c(=O)n(C)c(=O)n2C)n1CC(O)COc1ccc(C)c(C)c1 (stereo not drawn)", 1.0),
    ("COCCCn1c(C(=O)Nc2cccnc2)cc2c(=O)n(C)c(=O)n(C)c21", 0.0),
    ("Cn1nc(NC(=O)c2ccc3c(c2)OCO3)c2c1NC(=O)CC2c1cccs1 (stereo not drawn)", 0.0),
    ("Cn1nc(NC(=O)/C=C\\c2ccc3c(c2)OCO3)c2c1NC(=O)CC2c1ccco1 (stereo not drawn)", 1.0),
    ("COc1ccc2nc(N(CCN3CCOCC3)C(=O)c3ccc([N+](=O)[O-])o3)sc2c1", 1.0),
    ("CCS(=O)(=O)N1CCCc2ccc(NS(=O)(=O)c3cc(Cl)ccc3OC)cc21", 1.0),
    ("CC(=O)c1ccc(NC(=O)CSc2ccc(NC(=O)c3ccco3)nn2)cc1", 0.0),
    ("O=C(CCCn1nc(-c2ccc(Cl)cc2)ccc1=O)Nc1ccc(F)c(F)c1", 0.0),
    ("CCN1C(SCC(=O)Nc2cccc(Cl)c2)=NS(=O)(=O)c2ccccc21", 1.0),
    ("COc1cccc(CNC(=O)CSc2ccc(NC(=O)c3cccc(F)c3)nn2)c1", 0.0),
    ("CC(C)c1cc(NCCN2CCOCC2)n2ncc(-c3ccccc3)c2n1", 0.0),
    ("Cc1cc(C)n(CCNC(=O)c2nc(-c3cnccn3)no2)n1", 1.0),
    ("O=C(Nc1cccc(N2CCCS2(=O)=O)c1)c1cccc(F)c1", 0.0),
    ("COc1ccccc1CCNC(=O)C(=O)Nc1cc([N+](=O)[O-])ccc1C", 1.0),
    ("O=C(CSc1ccc(NC(=O)c2ccco2)nn1)Nc1ccc(OC(F)(F)F)cc1", 0.0),
    ("CCOc1ccccc1NC(=O)CSc1cc(N2CCC(C(=O)NC3CC3)CC2)ncn1", 0.0),
    ("COc1cccc(-n2nnc3c(N4CCN(C(=O)c5c(OC)cccc5OC)CC4)ncnc32)c1", 0.0),
    ("COc1ccc(-n2nnc3c(N4CCN(C(=O)C(C)Oc5ccccc5)CC4)ncnc32)cc1 (stereo not drawn)", 1.0),
]
